target: human NMDA receptor GluN1-GluN2C (Homo sapiens, UniProt Q05586+Q14957); construct: expressed in transfected cells; host or cells: CHO; assay: FLIPR calcium assay, test item effect on L-glutamate CRC, GluN1-GluN2C-CHO; assay type: cell-based; conditions: operational analysis for allosteric modulators
Sequence (Q14957 20-1233, other chains not shown): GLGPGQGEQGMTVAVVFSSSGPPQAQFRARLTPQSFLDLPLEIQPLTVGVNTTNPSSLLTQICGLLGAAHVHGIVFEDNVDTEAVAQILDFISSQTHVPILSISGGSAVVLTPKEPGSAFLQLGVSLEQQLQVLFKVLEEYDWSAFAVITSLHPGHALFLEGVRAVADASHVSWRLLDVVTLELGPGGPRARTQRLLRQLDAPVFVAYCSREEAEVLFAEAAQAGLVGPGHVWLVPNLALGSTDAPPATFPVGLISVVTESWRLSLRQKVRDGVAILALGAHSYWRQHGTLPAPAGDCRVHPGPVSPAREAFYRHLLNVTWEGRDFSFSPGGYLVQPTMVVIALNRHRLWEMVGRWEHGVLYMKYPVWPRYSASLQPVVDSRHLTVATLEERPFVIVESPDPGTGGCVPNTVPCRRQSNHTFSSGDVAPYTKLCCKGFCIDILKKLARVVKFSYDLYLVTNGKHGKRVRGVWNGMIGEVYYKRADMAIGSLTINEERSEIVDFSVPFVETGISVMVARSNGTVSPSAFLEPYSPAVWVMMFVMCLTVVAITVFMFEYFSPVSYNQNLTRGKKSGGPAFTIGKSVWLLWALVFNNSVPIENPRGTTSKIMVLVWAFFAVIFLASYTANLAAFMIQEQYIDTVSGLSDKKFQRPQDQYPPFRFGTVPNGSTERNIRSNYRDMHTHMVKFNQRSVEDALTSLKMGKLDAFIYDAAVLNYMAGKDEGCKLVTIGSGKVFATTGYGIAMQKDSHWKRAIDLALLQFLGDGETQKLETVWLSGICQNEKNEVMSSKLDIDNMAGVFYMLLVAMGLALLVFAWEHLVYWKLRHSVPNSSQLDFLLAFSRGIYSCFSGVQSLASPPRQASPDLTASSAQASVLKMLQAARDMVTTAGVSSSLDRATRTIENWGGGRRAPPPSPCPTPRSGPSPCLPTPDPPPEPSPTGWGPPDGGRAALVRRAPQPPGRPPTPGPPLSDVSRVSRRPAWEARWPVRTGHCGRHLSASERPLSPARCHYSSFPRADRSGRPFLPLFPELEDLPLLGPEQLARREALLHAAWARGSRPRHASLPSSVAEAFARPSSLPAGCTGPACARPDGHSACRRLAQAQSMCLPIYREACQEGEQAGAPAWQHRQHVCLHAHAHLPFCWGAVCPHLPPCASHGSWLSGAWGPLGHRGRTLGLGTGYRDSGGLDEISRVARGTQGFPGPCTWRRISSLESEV
Where a name gives a salt, the structure may show the parent alone.
RECORDED ENDPOINT: α, estimated cooperativity term
# answer = number (no unit)

Here are 3 compounds together with their reported answers.
CC12CC3CC(C)(C1)CC(N)(C3)C2 [Memantine, memantine hydrochloride] ... 0.10
COc1ccc2c(c1)[C@]13CCCC[C@@H]1[C@H](C2)N(C)CC3 [Dextromethorphan, hydrobromide monohydrate] ... 0.24
CCC(=O)C(C[C@H](C)N(C)C)(c1ccccc1)c1ccccc1 ... 0.17

# ---- query compound ----
For CNC1(c2ccccc2Cl)CCCCC1=O (racemic) [(±)-Ketamine, (±)-ketamine hydrochloride] the compound record lists α, estimated cooperativity term as 0.13

These data points were gathered from patent US20230017786A1.
